For each of the compounds below, state its TGI.
Tested on: LOX IMVI melanoma
ASSAY NAME: NCI tumour cell line growth inhibition, 48 h

[
  {
    "COMPOUND": "N/N=C1\\c2ccccc2C2/C(=N\\N)c3ccccc3C12 (stereo not given)",
    "TGI": "> 100 µM"
  },
  {
    "COMPOUND": "COc1ccc(/C=C2\\CN(C)CC3=C2OC(N)=C(C#N)C3c2ccc(OC)cc2)cc1 (stereo not given)",
    "TGI": "> 100 µM"
  },
  {
    "COMPOUND": "CN(C)c1ccc(/C=C2\\CNC/C(=C\\c3ccc(N(C)C)cc3)C2=O)cc1",
    "TGI": "37 µM"
  },
  {
    "COMPOUND": "Oc1ccc2c(c1)OCC(O)(c1ccccc1O)C2 (stereo not given)",
    "TGI": "> 100 µM"
  }
]

Switching to the query record.
Record FC(F)(F)c1ccc2c(c1)nc(Cc1ccccc1)n2C[C@@H]1CCCN2CCCCC12 (stereo not given in full) , field TGI: 30.3 µM

----------
System: SNB-75 CNS
ASSAY NAME: NCI tumour cell line growth inhibition, 48 h
For each of the compounds below, state its TGI.

Below, 3 compounds whose answers are already recorded.
[
  {
    "COMPOUND": "CCCCn1c2c(c3ccccc3c1=O)C(=O)c1ccccc1-2",
    "TGI": "> 100 µM"
  },
  {
    "COMPOUND": "Oc1[nH]c2ccccc2c1N=NC1=NCCCCN1",
    "TGI": "> 100 µM"
  },
  {
    "COMPOUND": "O=C(O)c1c(CC(Cc2ccc3c(c2)CCCC3)C(=O)O)ccc2c1CCCC2 (centres undefined)",
    "TGI": "> 100 µM"
  }
]

Go through the list and state TGI for each entry.
1. Cc1ccc(S(=O)(=O)Oc2ccc3c4c(c(=O)oc3c2)CCCCC4)cc1
2. O=c1ccc2ccccc2o1

1: > 100 µM; 2: > 100 µM

----------
For each of the molecules below, state its TGI.
System: HCC-2998 colon
ASSAY NAME: NCI tumour cell line growth inhibition, 48 h

Below, 3 molecules whose answers are already recorded.
[
  {
    "MOLECULE": "COC(=O)C1=NN2c3ccccc3C(=O)OCCC2C1 (centres undefined)",
    "TGI": "> 100 µM"
  },
  {
    "MOLECULE": "C=C1CC/C=C(/C(=O)O)CC[C@H]2[C@@H]1CC2(C)C",
    "TGI": "> 100 µM"
  },
  {
    "MOLECULE": "CC12O[C@H](c3ccccc3)[C@H](c3ccccc3)N1C(=O)C1(C(=O)OCc3ccccc3)CC12 (some centres undefined)",
    "TGI": "> 100 µM"
  }
]

Record CCCCCCCCCCCCCCCCCCNc1ccn(C2OC(COP(=O)(O)O)C(O)C2O)c(=O)n1 (centres undefined) , field TGI: > 100 µM

----------
Test system: NCI/ADR-RES ovarian
ASSAY NAME: NCI tumour cell line growth inhibition, 48 h
For each of the molecules below, state its TGI.

Below, 4 molecules whose answers are already recorded.
[
  {
    "MOLECULE": "CN(C)CCNCc1c2ccccc2c(CNCCN(C)C)c2ccccc12",
    "TGI": "> 100 µM"
  },
  {
    "MOLECULE": "OCCCSc1ccccc1SCCCO",
    "TGI": "> 100 µM"
  },
  {
    "MOLECULE": "CC1(C)OCC2OC3([C@H](O)CCO)OC(C)(C)OC3C2O1 (stereo not given in full)",
    "TGI": "> 100 µM"
  },
  {
    "MOLECULE": "CC(C)(C)OC(=O)NCCCCCCCCn1c2c(c3ccccc3c1=O)C(=O)c1ccccc1-2",
    "TGI": "> 50 µM"
  }
]

Switching to the query record.
Record COc1ccc(/C=C2\CN(C)CC3=C2OC(N)=C(C#N)C3c2ccc(OC)cc2)cc1 (stereo not given) , field TGI: > 100 µM
